System: Enterococcus spp.
protocol_description: minimum inhibitory concentration (MIC)
test_settings: isolate (source animal id): 171
minimum inhibitory concentration by entry:

compound	minimum inhibitory concentration [µg/mL]
CC1(C)S[C@@H]2[C@H](NC(=O)[C@H](N)c3ccccc3)C(=O)N2[C@H]1C(=O)O [Ampicillin]	0.5
CS(=O)(=O)c1ccc([C@@H](O)[C@@H](CF)NC(=O)C(Cl)Cl)cc1 [Florfenicol]	4
CC1(C)S[C@@H]2[C@H](NC(=O)Cc3ccccc3)C(=O)N2[C@H]1C(=O)O [Penicillin]	1
CC[C@H]1OC(=O)C[C@@H](O)[C@H](C)[C@@H](O[C@@H]2O[C@H](C)[C@@H](O[C@H]3C[C@@](C)(O)[C@@H](O)[C@H](C)O3)[C@H](N(C)C)[C@H]2O)[C@@H](CC=O)C[C@@H](C)C(=O)/C=C/C(C)=C/[C@@H]1CO[C@@H]1O[C@H](C)[C@@H](O)[C@@H](OC)[C@H]1OC [Tylosin]	2
CCN1CCN(c2cc3c(cc2F)c(=O)c(C(=O)O)cn3C2CC2)CC1 [Enrofloxacin]	0.5

---

minimum inhibitory concentration by entry:
Tested on: Escherichia coli
protocol_description: minimum inhibitory concentration (MIC)
test_settings: isolate (source animal id): 105
reported_property: minimum inhibitory concentration (µg/mL)

smiles_notation	assayed_system	relation	endpoint_value
CC[C@H]1OC(=O)C[C@@H](O)[C@H](C)[C@@H](O[C@@H]2O[C@H](C)[C@@H](O)[C@H](N(C)C)[C@H]2O)[C@@H](CCN2CCCCC2)C[C@@H](C)C(=O)/C=C/C(C)=C/[C@@H]1CN1CCCCC1	Escherichia coli	=	4
CO/N=C(\C(=O)N[C@@H]1C(=O)N2C(C(=O)O)=C(CSC(=O)c3ccco3)CS[C@H]12)c1csc(N)n1	Escherichia coli	=	0.5
CC1(C)S[C@@H]2[C@H](NC(=O)[C@H](N)c3ccccc3)C(=O)N2[C@H]1C(=O)O	Escherichia coli	=	4
C=C[C@]1(C)C[C@@H](OC(=O)CSCCN(CC)CC)[C@]2(C)[C@H](C)CC[C@]3(CCC(=O)[C@H]32)[C@@H](C)[C@@H]1O	Escherichia coli	>	32
CN1C[C@@H]2C[C@H]1CN2c1cc2c(cc1F)c(=O)c(C(=O)O)cn2C1CC1	Escherichia coli	≤	0.12

---

Test system: Pasteurella multocida
protocol_description: minimum inhibitory concentration (MIC)
test_settings: isolate (source animal id): 118
minimum inhibitory concentration by entry:
reported_property: minimum inhibitory concentration

smiles_notation	endpoint_value
COc1cc(NS(=O)(=O)c2ccc(N)cc2)nc(OC)n1	> 256 µg/mL
CC[C@H]1OC(=O)C[C@@H](O)[C@H](C)[C@@H](O[C@@H]2O[C@H](C)[C@@H](O)[C@H](N(C)C)[C@H]2O)[C@@H](CCN2C[C@H](C)C[C@H](C)C2)C[C@@H](C)C(=O)/C=C/C(C)=C/[C@@H]1CO[C@@H]1O[C@H](C)[C@@H](O)[C@@H](OC)[C@H]1OC	> 16 µg/mL
CO/N=C(\C(=O)N[C@@H]1C(=O)N2C(C(=O)O)=C(CSC(=O)c3ccco3)CS[C@H]12)c1csc(N)n1	≤ 0.25 µg/mL
CCN1CCN(c2cc3c(cc2F)c(=O)c(C(=O)O)cn3C2CC2)CC1	2 µg/mL
